TARGET OF ASSAY: T1, purified human CD117 ectodomain (R&D Systems #332-SR) (human, UniProt P10721 26-524)
T1 construct: extracellular domain; Bought protein; also called c-kit; purified recombinant human CD117 ectodomain
T1 sequence (P10721 26-524): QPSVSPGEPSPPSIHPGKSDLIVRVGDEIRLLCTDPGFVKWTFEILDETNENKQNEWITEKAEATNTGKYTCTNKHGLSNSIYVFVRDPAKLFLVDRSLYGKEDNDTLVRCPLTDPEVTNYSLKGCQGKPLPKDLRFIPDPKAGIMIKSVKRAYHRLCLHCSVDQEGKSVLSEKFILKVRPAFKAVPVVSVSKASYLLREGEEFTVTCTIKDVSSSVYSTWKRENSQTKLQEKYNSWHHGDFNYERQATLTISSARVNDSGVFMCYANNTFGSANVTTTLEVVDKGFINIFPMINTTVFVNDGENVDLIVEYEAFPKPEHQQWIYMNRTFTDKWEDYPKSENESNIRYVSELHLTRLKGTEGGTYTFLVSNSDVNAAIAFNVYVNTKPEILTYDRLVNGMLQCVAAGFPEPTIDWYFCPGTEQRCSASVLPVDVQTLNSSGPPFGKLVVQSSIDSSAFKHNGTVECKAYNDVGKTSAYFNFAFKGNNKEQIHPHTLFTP
PROTOCOL DETAILS: BLI, purified IgG on sensor, soluble ectodomain; apparent monovalent
QUANTITY: koff
Reply with the number, then its unit.

Below, 4 binders whose answers are already recorded.
# BINDER, koff
data = [
    ("HC-11/LC-11 (Ab11) (antibody, IgG1, V domains shown, Purified IgG; also called 011) VH: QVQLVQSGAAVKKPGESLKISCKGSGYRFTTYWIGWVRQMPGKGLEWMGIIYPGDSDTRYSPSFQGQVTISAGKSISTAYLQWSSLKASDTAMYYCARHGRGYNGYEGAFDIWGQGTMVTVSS VL: AIQLTQSPSSLSASVGDRVTITCRASQSIGDYLTWYQQKPGKAPKVLIYGASSLQSGVPPRFSGSGSGTDFTLTVSSLQPEDFATYYCQQLNSYPLTFGGGTKLEIK", "0.000474 s⁻¹"),
    ("HC-4/LC-4 (Ab4) (antibody, IgG1, V domains shown, Purified IgG; also called 004) VH: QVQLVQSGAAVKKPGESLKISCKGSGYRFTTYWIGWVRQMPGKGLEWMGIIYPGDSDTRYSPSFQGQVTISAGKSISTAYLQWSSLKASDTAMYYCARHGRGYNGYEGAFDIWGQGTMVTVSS VL: AIQMTQSPSSLSASVGDRVTITCRASQGIRNDLGWYQQKPGKAPKLLIYDASSLESGVPSRFSGSGSGTDFTLTISSLQPEDFATYYCQQFNSYPLTFGGGTKVDIK", "0.000405 s⁻¹"),
    ("HC-17/LC-17 (Ab17) (antibody, IgG1, V domains shown, From rat immunization/hybridoma; purified IgG in BLI; also called 017) VH: QIQLVQSGPELRKPGESVKISCKASGYTFTDYAMYWVKQAPGKGLKWMGWINTYTGKPTYADDFKGRFVFSLEASANTANLQISNLKNEDTATYFCARARGLVDDYVMDAWGQGTSVTVSS VL: SYELIQPPSASVTLGNTVSLTCVGDELSKRYAQWYQQKPDKTIVSVIYKDSERPSGISDRFSGSSSGTTATLTIHGTLAEDEADYYCLSTYSDDNLPVFGGGTKLTVL", "0.000306 s⁻¹"),
    ("HC-16/LC-16 (Ab16) (antibody, IgG1, V domains shown, Purified IgG; also called 016) VH: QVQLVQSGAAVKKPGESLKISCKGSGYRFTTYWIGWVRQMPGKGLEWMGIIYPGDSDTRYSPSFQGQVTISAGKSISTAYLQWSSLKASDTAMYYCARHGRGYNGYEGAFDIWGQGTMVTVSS VL: AIQLTQSPSSLSASVGDRVTITCRASQGITSALAWYQEKPGKAPNLLIYDASSLESGVPSRFSGSGYGTDFTLTISSLQPEDFATYYCQQLNSYPLTFGGGTKVDIK", "0.000949 s⁻¹"),
]

As a next step, examine the binder that follows.
QUERY: # get_value(readout='koff', item= HC-1/LC-1 (Ab1) (antibody, IgG1, V domains shown, Purified IgG (IgG1); also called 001; CK6 derivative Ab1) VH: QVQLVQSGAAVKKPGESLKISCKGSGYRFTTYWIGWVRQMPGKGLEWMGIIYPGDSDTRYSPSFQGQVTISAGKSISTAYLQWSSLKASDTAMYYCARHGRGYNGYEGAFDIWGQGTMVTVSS VL: AIQLTQSPSSLSASVGDRVTITCRASQGVSSALAWYQQKPGKAPKLLIYDASSLESGVPSRFSGSGSGTDFTLTISSLQPEDFATYYCQQFNSYPLTFGGGTKVEIK )
RESULT: 0.000848 s⁻¹
